The reported measurements were obtained from patent US20240336606A1.

target: binding of KRAS^G12C to SOS1 (Homo sapiens, UniProt Q07889); construct: Tag1 (unspecified); assay: Inhibition of the binding of KRAS^G12C to SOS1; settings: Tag1-SOS1 / Tag2-KRAS^G12C, 2 h incubation at room temperature; read-out: IC50 (nM), inhibitory activity on the binding of KRAS^G12C to SOS1
Sequence (Q07889 whole entry, stated change not applied): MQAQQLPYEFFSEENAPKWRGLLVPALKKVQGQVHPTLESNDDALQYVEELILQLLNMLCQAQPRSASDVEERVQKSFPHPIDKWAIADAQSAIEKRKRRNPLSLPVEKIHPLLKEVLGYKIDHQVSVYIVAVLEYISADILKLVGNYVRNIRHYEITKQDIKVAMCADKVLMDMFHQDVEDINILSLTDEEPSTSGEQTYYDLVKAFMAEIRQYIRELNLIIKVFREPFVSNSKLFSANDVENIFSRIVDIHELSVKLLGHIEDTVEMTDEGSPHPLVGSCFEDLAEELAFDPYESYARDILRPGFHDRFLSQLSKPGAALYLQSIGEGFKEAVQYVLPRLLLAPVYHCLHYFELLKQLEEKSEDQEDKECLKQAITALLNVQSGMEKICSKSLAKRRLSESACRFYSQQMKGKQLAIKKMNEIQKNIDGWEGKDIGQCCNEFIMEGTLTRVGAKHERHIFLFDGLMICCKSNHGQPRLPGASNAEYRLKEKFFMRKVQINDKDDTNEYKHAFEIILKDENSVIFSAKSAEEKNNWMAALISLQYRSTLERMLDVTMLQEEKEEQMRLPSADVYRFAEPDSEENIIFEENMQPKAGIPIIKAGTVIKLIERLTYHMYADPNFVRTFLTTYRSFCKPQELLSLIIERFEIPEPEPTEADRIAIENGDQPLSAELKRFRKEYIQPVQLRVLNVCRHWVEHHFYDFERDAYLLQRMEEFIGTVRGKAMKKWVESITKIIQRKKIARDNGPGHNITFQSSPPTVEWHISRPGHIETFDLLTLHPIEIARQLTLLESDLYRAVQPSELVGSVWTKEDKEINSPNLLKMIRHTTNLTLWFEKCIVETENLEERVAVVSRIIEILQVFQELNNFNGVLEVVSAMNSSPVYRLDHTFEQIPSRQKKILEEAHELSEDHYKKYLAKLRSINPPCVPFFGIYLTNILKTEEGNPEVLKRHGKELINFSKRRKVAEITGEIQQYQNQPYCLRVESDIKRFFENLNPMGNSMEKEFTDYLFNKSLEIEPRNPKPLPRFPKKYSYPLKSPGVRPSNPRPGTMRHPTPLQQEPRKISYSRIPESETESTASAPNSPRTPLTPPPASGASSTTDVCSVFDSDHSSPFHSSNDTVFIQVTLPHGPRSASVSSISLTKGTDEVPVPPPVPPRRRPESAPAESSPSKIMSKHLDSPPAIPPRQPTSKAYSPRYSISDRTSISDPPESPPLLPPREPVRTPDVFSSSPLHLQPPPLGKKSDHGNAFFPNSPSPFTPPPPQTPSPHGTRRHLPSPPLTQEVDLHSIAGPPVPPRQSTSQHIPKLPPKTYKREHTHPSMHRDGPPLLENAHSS
So I've got a bunch of molecules here, and I need their IC50 values.
Respond numerically; units are nM and should not be typed.

Task item: Record "COc1cc2nc(C)nc(N[C@H](C)c3cc(N)cc(C(F)(F)F)c3)c2cc1OC[C@H]1CCCO1" : what is its IC50 with binding of KRAS^G12C to SOS1 (Homo sapiens, UniProt Q07889)?
Reply: 8.2

Task item: # iterate: "COc1cc2nc(C)nc(N[C@H](C)c3cc(N)cc(C(F)(F)F)c3)c2cc1OC[C@@H]1CCCN1S(C)(=O)=O"
Reply: 31

Task item: # iterate: "COc1cc2nc(C)nc(N[C@H](C)c3cc(N)cc(C(F)(F)F)c3)c2cc1OCC1(OC)CC1"
Reply: 10

Task item: # iterate: "COc1cc2nc(C)nc(N[C@H](C)c3cccc(C(F)(F)C(C)(C)O)c3F)c2cc1OCCN(C)CC1CC(F)(F)C1"
Reply: 9.4

----------
biological target: binding of KRAS^G12C to SOS1 (Homo sapiens); construct: Tag1 (unspecified); experiment: Inhibition of the binding of KRAS^G12C to SOS1; conditions: Tag1-SOS1 / Tag2-KRAS^G12C, 2 h incubation at room temperature; read-out: IC50 (nM), inhibitory activity on the binding of KRAS^G12C to SOS1
Response field label: string, one of Met (IC50 strictly below 8 nM) or Not met.

Task item: Would you kindly verify if IC50 of "COCCOCCOc1cc2c(N[C@H](C)c3cc(N)cc(C(F)(F)F)c3)nc(C)nc2cc1OC" is strictly less than 8 nM?
Reply: Met

Task item: # iterate: "COc1cc2nc(C)nc(N[C@H](C)c3cc(N)cc(C(F)(F)F)c3)c2cc1OCCOC1CC1"
Reply: Met

Task item: # iterate: "COc1cc2nc(C)nc(N[C@H](C)c3cc(N)cc(C(F)(F)F)n3)c2cc1OCCOC1COC1"
Reply: Not met

Task item: # iterate: "COCCOc1cc2c(N[C@H](C)c3cc(N)cc(C(F)(F)F)c3)nc(C)nc2cc1OC"
Reply: Met

Task item: # iterate: "COc1cc2nc(C)nc(N[C@H](C)c3cccc(C(F)(F)C(C)(C)O)c3F)c2cc1OCCN(C)CC1CCC1"
Reply: Met

Task item: # iterate: "[2H]C([2H])([2H])OCCOc1cc2c(N[C@H](C)c3cc(N)cc(C(F)(F)F)c3)nc(C)nc2cc1OC"
Reply: Met

Task item: # iterate: "COc1cc2nc(C)nc(N[C@H](C)c3cc(N)cc(C(F)(F)F)c3)c2cc1OC[C@@H]1CCCO1"
Reply: Not met

Task item: # iterate: "COc1cc2nc(C)nc(N[C@H](C)c3cc(N)cc(C(F)(F)F)c3)c2cc1OC[C@@H]1CCC(=O)N1C"
Reply: Not met

Task item: # iterate: "COc1cc2nc(C)nc(N[C@H](C)c3cc(N)cc(C(F)(F)F)c3)c2cc1OCCOC1CCC1"
Reply: Met

Task item: # iterate: "COc1cc2nc(C)nc(N[C@H](C)c3cccc(C(F)(F)C(C)(C)O)c3F)c2cc1OCC1(CN(C)C)CC1"
Reply: Not met

Task item: # iterate: "COc1cc2nc(C)nc(N[C@H](C)c3cccc(C(F)(F)C(C)(C)O)c3F)c2cc1OCCN(C)S(C)(=O)=O"
Reply: Met

Task item: # iterate: "COCCOc1cc2c(N[C@H](C)c3cccc(C(F)(F)C(C)(C)O)c3F)nc(C)nc2cc1C#N"
Reply: Met

Task item: # iterate: "COCCOc1cc2nc(C)nc(N[C@H](C)c3cccc(C(F)(F)C(C)(C)O)c3F)c2cc1OCCOC"
Reply: Met

Task item: # iterate: "COc1cc2nc(C)nc(N[C@H](C)c3cc(N)nc(C(F)(F)F)c3)c2cc1OCCOC1CC1"
Reply: Not met

Task item: # iterate: "COc1cc2nc(C)nc(N[C@H](C)c3cc(N)cc(C(F)(F)F)c3)c2cc1OCCN(C)C1CC1"
Reply: Met

Task item: # iterate: "COc1cc2nc(C)nc(N[C@H](C)c3cc(N)cc(C(F)(F)F)c3)c2cc1OCC1(N(C)C)CC1"
Reply: Met

Task item: # iterate: "COc1cc2nc(C)nc(N[C@H](C)c3cc(N)cc(C(F)(F)F)c3)c2cc1OCC1(CN2CCOCC2)CC1"
Reply: Met

Task item: # iterate: "COCCOc1cc2c(N[C@H](C)c3cncc(C(F)(F)C(C)(C)O)c3)nc(C)nc2cc1OC"
Reply: Not met

Task item: # iterate: "COc1cc2nc(C)nc(N[C@H](C)c3cc(N)cc(C(F)(F)F)c3)c2cc1OCCO[C@@H]1CCOC1"
Reply: Met

Task item: # iterate: "COCC1(COc2cc3c(N[C@H](C)c4cc(N)cc(C(F)(F)F)c4)nc(C)nc3cc2OC)COC1"
Reply: Met

Task item: # iterate: "COc1cc2nc(C)nc(N[C@H](C)c3cccc(C(F)(F)F)c3F)c2cc1OC[C@@H]1CCCN1S(C)(=O)=O"
Reply: Not met

Task item: # iterate: "COc1cc2nc(C)nc(N[C@H](C)c3cc(N)cc(C(F)(F)F)c3)c2cc1OC[C@H](C)OC"
Reply: Met
